Tested on: Staphylococcus aureus (ATCC 25923)
Experiment: Antibacterial activity against Staphylococcus aureus ATCC 25923 after 24 hrs by browth microdilution assay
Assay conditions: ATCC 25923, 24 h
Measure: MIC (mg/L)

>>> numeric_result("Nc1ccc2sc(NC(=S)NC(=O)c3ccc([N+](=O)[O-])cc3)nc2c1")
50
>>> numeric_result("O=C(NC(=S)Nc1nc2cc([N+](=O)[O-])ccc2s1)c1ccc([N+](=O)[O-])cc1")
50
>>> numeric_result("O=C(NC(=S)Nc1nc2cc([N+](=O)[O-])ccc2s1)N1CCOCC1")
20
>>> numeric_result("O=C(NC(=S)Nc1nc2cc(Br)ccc2s1)c1ccccc1")
50
>>> numeric_result("Nc1ccc2sc(NC(=S)NC(=O)c3ccccc3)nc2c1")
50
>>> numeric_result("O=C(NC(=S)Nc1nc2cc(Br)ccc2s1)c1ccc([N+](=O)[O-])cc1")
50
>>> numeric_result("O=C(NC(=S)Nc1nc2ccccc2s1)N1CCOCC1")
50
>>> numeric_result("O=C(NC(=S)Nc1nc2cc(Br)ccc2s1)N1CCOCC1")
50
>>> numeric_result("O=C(NC(=S)Nc1nc2cc([N+](=O)[O-])ccc2s1)c1cccs1")
25
>>> numeric_result("NCC[C@H](O)C(=O)N[C@@H]1C[C@H](N)[C@@H](O[C@H]2O[C@H](CN)[C@@H](O)[C@H](O)[C@H]2O)[C@H](O)[C@H]1O[C@H]1O[C@H](CO)[C@@H](O)[C@H](N)[C@H]1O [AMIKACIN]")
2
>>> numeric_result("Nc1ccc2sc(NC(=S)NC(=O)N3CCOCC3)nc2c1")
50
>>> numeric_result("O=C(NC(=S)Nc1nc2cc([N+](=O)[O-])ccc2s1)c1ccccc1")
15
>>> numeric_result("O=C(NC(=S)Nc1nc2ccccc2s1)c1cccs1")
50

---

System: Enterobacter cloacae
Experiment: Antibacterial activity against Enterobacter cloacae ATCC 13047 after 24 hrs by browth microdilution assay
Assay type: functional
Assay conditions: ATCC 13047, 24 h
Measure: MIC (µg/mL)

>>> numeric_result("O=C(NC(=S)Nc1nc2ccccc2s1)N1CCOCC1")
25
>>> numeric_result("O=C(NC(=S)Nc1nc2cc([N+](=O)[O-])ccc2s1)c1ccccc1")
25
>>> numeric_result("CCCC(=O)NC(=S)Nc1nc2cc([N+](=O)[O-])ccc2s1")
20
>>> numeric_result("O=C(NC(=S)Nc1nc2cc(Br)ccc2s1)N1CCOCC1")
50
>>> numeric_result("Nc1ccc2sc(NC(=S)NC(=O)c3ccccc3)nc2c1")
50
>>> numeric_result("Nc1ccc2sc(NC(=S)NC(=O)c3cccs3)nc2c1")
50
>>> numeric_result("O=C(NC(=S)Nc1nc2ccccc2s1)c1cccs1")
50
>>> numeric_result("O=C(NC(=S)Nc1nc2cc([N+](=O)[O-])ccc2s1)N1CCOCC1")
15
>>> numeric_result("CCCC(=O)NC(=S)Nc1nc2cc(Br)ccc2s1")
50
>>> numeric_result("O=C(NC(=S)Nc1nc2cc([N+](=O)[O-])ccc2s1)c1ccc([N+](=O)[O-])cc1")
25
>>> numeric_result("Nc1ccc2sc(NC(=S)NC(=O)c3ccc([N+](=O)[O-])cc3)nc2c1")
25
>>> numeric_result("O=C(NC(=S)Nc1nc2cc(Br)ccc2s1)c1cccs1")
50
>>> numeric_result("O=C(NC(=S)Nc1nc2cc([N+](=O)[O-])ccc2s1)c1cccs1")
15
>>> numeric_result("Nc1ccc2sc(NC(=S)NC(=O)N3CCOCC3)nc2c1")
25

---

Test system: Pichia kudriavzevii
Experiment: Antifungal activity against Candida krusei ATCC 6268 after 48 hrs by browth microdilution assay
Type: functional
Assay conditions: ATCC 6268, 48 h
# MIC per record follows
Measure: MIC (mg/L)

>>> numeric_result("Nc1ccc2sc(NC(=S)NC(=O)c3ccc([N+](=O)[O-])cc3)nc2c1")
50
>>> numeric_result("Nc1ccc2sc(NC(=S)NC(=O)c3cccs3)nc2c1")
25
>>> numeric_result("CCCC(=O)NC(=S)Nc1nc2ccccc2s1")
25
>>> numeric_result("O=C(NC(=S)Nc1nc2cc([N+](=O)[O-])ccc2s1)c1ccccc1")
50
>>> numeric_result("O=C(NC(=S)Nc1nc2ccccc2s1)c1ccccc1")
50
>>> numeric_result("CCCC(=O)NC(=S)Nc1nc2cc(Br)ccc2s1")
50
>>> numeric_result("O=C(NC(=S)Nc1nc2cc([N+](=O)[O-])ccc2s1)c1ccc([N+](=O)[O-])cc1")
25
>>> numeric_result("O=C(NC(=S)Nc1nc2cc(Br)ccc2s1)c1ccc([N+](=O)[O-])cc1")
50
>>> numeric_result("O=C(NC(=S)Nc1nc2cc(Br)ccc2s1)c1ccccc1")
50
>>> numeric_result("O=C(NC(=S)Nc1nc2cc([N+](=O)[O-])ccc2s1)N1CCOCC1")
20
>>> numeric_result("Nc1ccc2sc(NC(=S)NC(=O)c3ccccc3)nc2c1")
25
>>> numeric_result("O=C(NC(=S)Nc1nc2cc([N+](=O)[O-])ccc2s1)c1cccs1")
20
>>> numeric_result("O=C(NC(=S)Nc1nc2ccccc2s1)N1CCOCC1")
25
>>> numeric_result("CCCC(=O)NC(=S)Nc1nc2cc(N)ccc2s1")
50
>>> numeric_result("CCCC(=O)NC(=S)Nc1nc2cc([N+](=O)[O-])ccc2s1")
25
>>> numeric_result("O=C(NC(=S)Nc1nc2cc(Br)ccc2s1)N1CCOCC1")
50
>>> numeric_result("O=C(NC(=S)Nc1nc2ccccc2s1)c1cccs1")
25
>>> numeric_result("Nc1ccc2sc(NC(=S)NC(=O)N3CCOCC3)nc2c1")
25
